Molecular target: Fuc(a1-2)Gal(b1-4)[Fuc(a1-3)]GlcNAc(b1-3)Gal(b1-4)[Fuc(a1-3)]GlcNAc(b1-3)Gal(b1-4)[Fuc(a1-3)]GlcNAc
Experiment: glycan array binding signal (z-score within array); higher = stronger binding
Settings: glycan notation: IUPAC condensed, linker removed
About 410 targets per protein were measured; listed, in parts, are those with the strongest signals and a random draw of the rest.
observation_type: glycan array binding signal (z-score)
Give the value as a plain number.

binder="CBM32-4 (Clostridium perfringens), P26831 (protein) MGSSHHHHHHSSGLVPRGSHMASVYEPSLVDAYVGDDGAKKAVDGDLKTRVKFLGAPSTGDTIVYDLGQEILVDNLKYVVLDTEVDHVRDGKIQLSLDGETWTDAINIGDGVENGVDDMFSTPLKNGYKHGNQSGGIVPIDSAYVEGDNLNQKARYVRILFTAPYRHRWTVINELMINNGEYIPTVNDPT" measured_result=-0.29

Then this binder:
stdin: Fill in reported glycan array binding signal (z-score) for this entry: Protein L(B1-B4) (Finegoldia magna), Q51912 (protein) KEETPETPETDSEEEVTIKANLIFANGSTQTAEFKGTFEKATSEAYAYADTLKKDNGEYTVDVADKGYTLNIKFAGKEKTPEEPKEEVTIKANLIYADGKTQTAEFKGTFEEATAEAYRYADALKKDNGEYTVDVADKGYTLNIKFAGKEKTPEEPKEEVTIKANLIYADGKTQTAEFKGTFEEATAEAYRYADLLAKENGKYTVDVADKGYTLNIKFAGKEKTPEEPKEEVTIKANLIYADGKTQTAEFKGTFAEATAEAYRYADLLAKENGKYTADLEDGGYTINIRFAG
stdout: 0.159
